# Applied Conditions: buffer; pH 7.4; 200.0 µM
Quantity Measured: solubility kinetic (µg/mL)
Answers are plain numbers, in µg/mL.

# count of solved cases: 6
Cc1ccccc1NC(=S)Nc1ccccc1 ... 18.8
Clc1ccccc1OCCCOc1cccc2cccnc12 ... 3.9
CCOC(=O)c1csc(NC(=O)c2cccs2)n1 ... 28.9
O=C(OCC(=O)N1CCCC1)c1ccc(Cl)c([N+](=O)[O-])c1 ... 31.8
CCCCc1ccc(NC(=O)Cn2c(=O)c(N3CCCCC3)c(N)n(C)c2=O)cc1 ... 26.6
CCOC(=O)N1CCc2c(sc3nc[nH]c(=O)c23)C1 ... 38.9

Hi! Can you tell me solubility kinetic for each of these molecules?
1. Cc1cc(C)c2ccc(Cl)cc2n1
2. Fc1cccc(NC(=S)N2CCn3cccc3C2c2cccnc2)c1 (stereo not given)
3. Cc1cc(C)c(C)c(OCC(=O)O/N=C(\N)c2cccnc2)c1
4. CC(Cc1ccccc1)NC(=O)c1cc2ccccc2o1 (stereo not given)
5. O=C(Nc1ccccc1F)NC1CCCc2ccccc21 (stereo not given)
6. CCC1=NC(c2ccc(Br)cc2)N(O)C1(C)C (stereo not given)
7. CC(C)(C)c1cc(CCC(=O)Nc2ccncc2)cc(C(C)(C)C)c1O
8. O=C(c1cccnc1Cl)N(Cc1ccccc1)Cc1ccccc1

1.5
51.9
2.5
30.5
2
41
40.4
39.5

Any idea what solubility kinetic was measured for OCCCNc1nc(-c2ccccc2)nc2c1oc1ccccc12 ?
1.3
